Give protein stability index for every item shown.
Assay: protein stability index of a GFP-peptide fusion (GPS, HEK-293T) (PSI 1-6); higher = more stable;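 note: 24-mer peptide tiles fused after GFP, lentivirally expressed, FACS-sorted into six equal bins by GFP/DsRed ratio, decoded by Illumina sequencing, PSI is the read-weighted mean bin number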
Conditions: treatment: MLN4924 1 uM, 8 h; c terminus: a fixed tail appended

Name the reported protein stability index value associated with the sequence CPQSLPCFEASDCKESSPMPVICG [NANOGP8]
3.89

Name the reported protein stability index value associated with the sequence PLTSTQGLEHAAAGGSSGTTARER [FBF1]
5.33

Name the reported protein stability index value associated with the sequence GEVIHCKLRAMKELSEAAEAQHGP [STX11]
4.22

Name the reported protein stability index value associated with the sequence EAVESRGGVPGGCVLVPRADLRLG [SMAD6]
4.34

Name the reported protein stability index value associated with the sequence NRRLRALEEQGATWRHRETLIIAV [FATE1]
2.22

Name the reported protein stability index value associated with the sequence GSSRSPGSKARAEGRGPVTPLHLD [PLEKHN1]
4.74

Name the reported protein stability index value associated with the sequence MDYKSSLIQDGNPMENLEKQLICP [TRIM63]
4.14

Name the reported protein stability index value associated with the sequence GSNEYTEGPSVVKRPAPRTAPRQE [SPRY1]
5.3

Name the reported protein stability index value associated with the sequence DLKARIDQNTVVTRQLSEENANLQ [MTUS2]
4.93

Name the reported protein stability index value associated with the sequence TDFFKNIMNFIDIVAIIPYFITLG [KCNA1]
3.6

Name the reported protein stability index value associated with the sequence ILRAIGKGSFGKVCIVQKNDTKKM [STK32A]
2.56

Name the reported protein stability index value associated with the sequence KEDNSLLNQGFLQAKPEKAAVAQK [MYBL2]
5.14

Name the reported protein stability index value associated with the sequence EAIPILRAALKLEPSNKTIHAELS [FKBP8]
2.65

Name the reported protein stability index value associated with the sequence YYPTSSSTSFMSSSSSSSSWLTRR [EMD]
3.29

Name the reported protein stability index value associated with the sequence QQLHARYVLNLLYETKKHLVQLPN [PPEF2]
2.32

Name the reported protein stability index value associated with the sequence TCCYFKFIIEYYNIRPADSRWVRD [FBXO34]
2.29

Name the reported protein stability index value associated with the sequence AGISPLQQMVASGTGAVVTSLFMT [SLC25A39]
2.17

Name the reported protein stability index value associated with the sequence CSGTELSLAHCRHDGEDVACPQGG [LOXL2]
4.3

Name the reported protein stability index value associated with the sequence LGMVTPVNDLRGSDSIAYDKGEKL [ADD1]
4.9

Name the reported protein stability index value associated with the sequence VQEVMEEEWNALQSVENCPEDLAQ [RPAIN]
5.48

Name the reported protein stability index value associated with the sequence CLMLLMGTVHCQIVSTQITRPSGN [PHTF1]
2.84

Name the reported protein stability index value associated with the sequence SVNEHTEEGESLLCLACSAGYYEL [ANKRD17]
2.93

Name the reported protein stability index value associated with the sequence SQVRALDRFQVPTTEVNAWLVHRD [NFE2L1]
3.33

Name the reported protein stability index value associated with the sequence QEKKRKFLESTDSFNNELKRLCGL [SMARCE1]
3.14

Name the reported protein stability index value associated with the sequence LVFPSSSSSSSSQAPGQPPGNQAE [ZBTB22]
4.71

Name the reported protein stability index value associated with the sequence EFPEDPEFEAVVRQAELAIERCIF [PI4K2A]
2.96

Name the reported protein stability index value associated with the sequence HRSSRETRDYAPPSRGHAYRDYGH [RBMY1A1]
3.92

Name the reported protein stability index value associated with the sequence AAQNCRKRKLDTILNLERDVEDLQ [NFE2L1]
4.62

Name the reported protein stability index value associated with the sequence RIYVLGGGTSWTAYSLNKIHAYNL [KLHDC10]
2.61

Name the reported protein stability index value associated with the sequence LSPTQRQKNFELAFTMAENLANCE [SMTNL2]
3.67

Name the reported protein stability index value associated with the sequence DVKDWWLFGFYFCMPLVCTAIFYT [EDNRA]
3.56

Name the reported protein stability index value associated with the sequence LQELCYQWLRPHVSTKEQILDLLV [ZSCAN9]
2.45

Name the reported protein stability index value associated with the sequence SSAASLIDFLRVVRNQQSLAVSNM [PTPN9]
2.1

Name the reported protein stability index value associated with the sequence HFSQIVIFMLCTLVLAIPLLLILV [OR10K2]
2.25

Name the reported protein stability index value associated with the sequence AGGAGGGVTEEQEGFADGFVKALD [JUNB]
5.35

Name the reported protein stability index value associated with the sequence LYPNPRERSSFYSCAGGRLFQQSC [CHIT1]
2.37

Name the reported protein stability index value associated with the sequence GAPTSLQTEPQDRSPAPMSCDKST [BCL2L11]
5.36

Name the reported protein stability index value associated with the sequence LRVGIPENAPIGTLLLRLNATDPD [PCDHGC5]
3.22

Name the reported protein stability index value associated with the sequence LGGFRHKVTGVEYHNAGTQTVPKR [IQUB]
4.1

Name the reported protein stability index value associated with the sequence IVNQWSEKFSDEGDSDSALDSVSP [DLC1]
5.24

Name the reported protein stability index value associated with the sequence EDEGFLREEERPLPRRDFQRQVWL [KCNA3]
4

Name the reported protein stability index value associated with the sequence QLLLQFERLVVLDYIIRNTDRGND [PI4K2A]
2.64

Name the reported protein stability index value associated with the sequence AHLPKAQLSGYAVEATRNQSQLQR [FBF1]
4.08

Name the reported protein stability index value associated with the sequence VGYGDMYPVTIGGKIVGSLCAIAG [KCNA1]
2.45

Name the reported protein stability index value associated with the sequence YDYLRKLFTDLFDRKGYMFDYEYD [CSNK1G3]
2

Name the reported protein stability index value associated with the sequence EHIYDLRSLENYHFVDEHGKDQGI [CLINT1]
4.08

Name the reported protein stability index value associated with the sequence NQVVSSTNGELNTDDPTAGRSNAP [CSNK1G3]
5.5

Name the reported protein stability index value associated with the sequence KNTSEQDQPMGGWEMIRKIGDTSV [LMNB1]
4.43

Name the reported protein stability index value associated with the sequence SQAPVNKPKKKKEKKEKEKKKKDK [BRD3]
5.3

Name the reported protein stability index value associated with the sequence PMVARYIRINPQSWFDNGSICMRM [CPXM2]
1.95

Name the reported protein stability index value associated with the sequence EVYQEVQAMFDTLGIPKSTTSDIP [FAM98B]
3.5

Name the reported protein stability index value associated with the sequence EDFTNTLRELGHAEHEITELTATF [PKD2L1]
4.22

Name the reported protein stability index value associated with the sequence RENSKPRAILKPRKVCVGGKRRKD [PPP2R2B]
4.89

* * *

Assay: protein stability index of a GFP-peptide fusion (GPS, HEK-293T) (PSI 1-6); higher = more stable
Settings: treatment: DMSO; c terminus: a fixed tail appended
Label Not fulfilled if protein stability index falls below 3; label Fulfilled in every other case.

Entry NSVTAGDYSRPLHISTFINELDSG [TSN] : is its protein stability index no less than 3?
Fulfilled

Entry EFARKGSCFLINTADRIIRVYDGR [RBBP5] : is its protein stability index no less than 3?
Not fulfilled

Entry TVVSVRGFEESEPLTGFLTTVPDG [TNXB] : is its protein stability index no less than 3?
Fulfilled

Entry AMVWALDLDDFAGFSCNQGRYPLI [CHIT1] : is its protein stability index no less than 3?
Not fulfilled

Entry KIANLGSCNDSKLEFRSFWELIGE [S100A14] : is its protein stability index no less than 3?
Not fulfilled

Entry GTDRIVKIWDMTPVVGCSLATGFS [WDFY1] : is its protein stability index no less than 3?
Not fulfilled

Entry LEPLGAPQAPAPATATDTFEAAPP [CEBPB] : is its protein stability index no less than 3?
Fulfilled

Entry LLLSILNPTRQDESIQRIAVHLCN [ZER1] : is its protein stability index no less than 3?
Not fulfilled

Entry EHIYDLRSLENYHFVDEHGKDQGI [CLINT1] : is its protein stability index no less than 3?
Fulfilled

Entry DETLSSSHQKCPQLGGPEASGGLV [PLEKHN1] : is its protein stability index no less than 3?
Fulfilled

* * *

Give protein stability index for every item shown.
Assay: protein stability index of a GFP-peptide fusion (GPS, HEK-293T) (PSI 1-6); higher = more stable
Conditions: treatment: DMSO; c terminus: a fixed tail appended
Note: the reply should be a number with no unit written.

Name the reported protein stability index value associated with the sequence LDLAGNNIPGDVLRAVEQAMGHSQ [LRRC45]
4.45

Name the reported protein stability index value associated with the sequence QYQYERYGAVELSGAGRRKNATRE [IRX6]
4.5

Name the reported protein stability index value associated with the sequence MSDRRENDMSPSNNVVPIHVPPTT [RAB11A]
4.67

Name the reported protein stability index value associated with the sequence SKLSRKYVKAKKSIDKDEEFAGSS [FAN1]
4.84

Name the reported protein stability index value associated with the sequence DIYYNNMEEVCGGEKPYLSPDILE [ATL3]
3.72

Name the reported protein stability index value associated with the sequence PYFKSNDVVCKNQDELRNRSVKVI [FAN1]
3.78

Name the reported protein stability index value associated with the sequence RQLDPSNCLGIRAFADTHSCRELL [KLHL20]
3.07

Name the reported protein stability index value associated with the sequence SDAEAVSTRWEVIAEDGTKEIESQ [TAF7L]
5.42

Name the reported protein stability index value associated with the sequence QSLTEDLEFRKSMYEEEINETRRK [LMNB1]
4.99

Name the reported protein stability index value associated with the sequence SVGCIFAEMFRRKPLFCGNSEADQ [CDK4]
2.37

Name the reported protein stability index value associated with the sequence AASPELSALEEAFRRFAVHGDARA [TPPP]
3.73

Name the reported protein stability index value associated with the sequence HHSRGNTNKFYMLDSRSTDRVLQW [KLHDC2]
2.65

Name the reported protein stability index value associated with the sequence RMLEFDPAQRITLAEALLHPFFAG [CLK3]
2.38
